# tgt: T1, human PD-L1 (hPD-L1) expressed on transfected 300.19 cells (human, UniProt Q9NZQ7 19-290)
# T1 construct: whole, on cells; also called B7H1
# test.summary: FACS, hPD-L1 300.19 cells, assay 1, Ab 1 ug/ml
Entries and their Cells PE-A Mean
Give the quantity in MFI, number only.

Worked examples, 3 binders total:
1. Ab-42 (antibody, V domains shown, also called huPD-L1 Ab # 42; mAb42) VH: QVQLVQSGAEVKKPGSSVKVSCKASGGTFSSYAISWVRQAPGQGLEWMGGIIPIFGTANYAQKFQGRVTITADKSTSTAYMELSSLRSEDTAVYYCARGRQMFGAGIDFWGPGTLVTVSS VL: NFMLTQPHSVSESPGKTVTISCTRSSGSIDSNYVQWYQQRPGSAPTTVIYEDNQRPSGVPDRFSGSIDSSSNSASLTISGLKTEDEADYYCQSYDSNNRHVIFGGGTKLTVL: 40900
2. Ab-52 (antibody, V domains shown, also called huPD-L1 Ab # 52) VH: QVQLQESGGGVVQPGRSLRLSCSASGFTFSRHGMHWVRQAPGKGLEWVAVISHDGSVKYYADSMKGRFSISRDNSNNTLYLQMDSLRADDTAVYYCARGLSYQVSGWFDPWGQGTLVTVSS VL: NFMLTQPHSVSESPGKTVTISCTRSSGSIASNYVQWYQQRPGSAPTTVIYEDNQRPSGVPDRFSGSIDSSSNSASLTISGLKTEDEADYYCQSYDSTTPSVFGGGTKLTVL: 21400
3. Ab-14 (antibody, V domains shown, also called huPD-L1 Ab # 14) VH: QVQLVQSGAEVKKPGASVKVSCKASGYTFTSYGISWVRQAPGQGLEWMGWISAYNGNTNYAQKLQGRVTMTTDTSTSTAYMELRSLRSDDTAVYYCARALPSGTILVGGWFDPWGQGTLVTVSS VL: NFMLTQPHSVSESPGKTVTISCTRSSGNIASNYVQWYQQRPGSAPTTVIYEDNQRPSGVPDRFSGSIDSSSNSASLTISGLKTEDEADYYCQSYDSSNLWVFGGGTKLTVL: 23300

Value lookup for Cells PE-A Mean; key = Ab-30 (antibody, V domains shown, also called huPD-L1 Ab # 30) VH: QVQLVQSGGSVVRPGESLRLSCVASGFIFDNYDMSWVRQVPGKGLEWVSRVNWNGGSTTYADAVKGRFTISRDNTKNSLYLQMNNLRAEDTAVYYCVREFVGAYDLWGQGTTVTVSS VL: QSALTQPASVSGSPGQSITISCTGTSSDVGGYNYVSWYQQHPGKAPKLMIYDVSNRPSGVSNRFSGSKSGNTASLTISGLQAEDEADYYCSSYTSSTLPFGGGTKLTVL
37500

Entry Ab-31 (antibody, V domains shown, also called huPD-L1 Ab # 31) VH: QVQLVQSGAEVKKPGATVKVSCKVFGDTFRGLYIHWVRQAPGQGLEWMGGIIPIFGTANYAQKFQGRVTITTDESTSTAYMELSSLRSEDTAVYYCASGLRWGIWGWFDPWGQGTLVTVSS VL: EIVLTQSPATLSLSPGERATLSCRASQSIGNSLAWYQQKPGQAPRLLMYGASSRATGIPDRFSGSGAGTDFTLTISSLEPEDFATYYCQQHTIPTFSFGPGTKVEVK has what Cells PE-A Mean?
44200

I'd like to know its Cells PE-A Mean. The binder in question is Ab-55 (antibody, V domains shown, also called huPD-L1 Ab # 55) VH: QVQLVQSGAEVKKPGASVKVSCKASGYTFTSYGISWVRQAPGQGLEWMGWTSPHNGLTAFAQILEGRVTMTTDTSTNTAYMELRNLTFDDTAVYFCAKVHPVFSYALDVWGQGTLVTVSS VL: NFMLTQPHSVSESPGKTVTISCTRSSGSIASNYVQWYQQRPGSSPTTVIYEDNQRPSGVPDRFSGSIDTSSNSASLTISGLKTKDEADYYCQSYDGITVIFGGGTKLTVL
9650

Cells PE-A Mean for Ab-50 (antibody, V domains shown, also called huPD-L1 Ab # 50) VH: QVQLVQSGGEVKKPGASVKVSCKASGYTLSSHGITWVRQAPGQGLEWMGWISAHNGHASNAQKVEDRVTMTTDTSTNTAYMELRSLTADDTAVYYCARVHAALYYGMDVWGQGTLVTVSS VL: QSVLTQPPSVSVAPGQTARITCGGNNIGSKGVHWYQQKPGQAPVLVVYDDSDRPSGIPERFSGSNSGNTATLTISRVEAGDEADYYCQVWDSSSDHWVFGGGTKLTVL ?
42100
